Items are presented alongside their recorded DC50.
Target: p300 (Homo sapiens)
Construct: host or cells: A549 P300 HiBit cells
Sequence (Q09472 whole entry): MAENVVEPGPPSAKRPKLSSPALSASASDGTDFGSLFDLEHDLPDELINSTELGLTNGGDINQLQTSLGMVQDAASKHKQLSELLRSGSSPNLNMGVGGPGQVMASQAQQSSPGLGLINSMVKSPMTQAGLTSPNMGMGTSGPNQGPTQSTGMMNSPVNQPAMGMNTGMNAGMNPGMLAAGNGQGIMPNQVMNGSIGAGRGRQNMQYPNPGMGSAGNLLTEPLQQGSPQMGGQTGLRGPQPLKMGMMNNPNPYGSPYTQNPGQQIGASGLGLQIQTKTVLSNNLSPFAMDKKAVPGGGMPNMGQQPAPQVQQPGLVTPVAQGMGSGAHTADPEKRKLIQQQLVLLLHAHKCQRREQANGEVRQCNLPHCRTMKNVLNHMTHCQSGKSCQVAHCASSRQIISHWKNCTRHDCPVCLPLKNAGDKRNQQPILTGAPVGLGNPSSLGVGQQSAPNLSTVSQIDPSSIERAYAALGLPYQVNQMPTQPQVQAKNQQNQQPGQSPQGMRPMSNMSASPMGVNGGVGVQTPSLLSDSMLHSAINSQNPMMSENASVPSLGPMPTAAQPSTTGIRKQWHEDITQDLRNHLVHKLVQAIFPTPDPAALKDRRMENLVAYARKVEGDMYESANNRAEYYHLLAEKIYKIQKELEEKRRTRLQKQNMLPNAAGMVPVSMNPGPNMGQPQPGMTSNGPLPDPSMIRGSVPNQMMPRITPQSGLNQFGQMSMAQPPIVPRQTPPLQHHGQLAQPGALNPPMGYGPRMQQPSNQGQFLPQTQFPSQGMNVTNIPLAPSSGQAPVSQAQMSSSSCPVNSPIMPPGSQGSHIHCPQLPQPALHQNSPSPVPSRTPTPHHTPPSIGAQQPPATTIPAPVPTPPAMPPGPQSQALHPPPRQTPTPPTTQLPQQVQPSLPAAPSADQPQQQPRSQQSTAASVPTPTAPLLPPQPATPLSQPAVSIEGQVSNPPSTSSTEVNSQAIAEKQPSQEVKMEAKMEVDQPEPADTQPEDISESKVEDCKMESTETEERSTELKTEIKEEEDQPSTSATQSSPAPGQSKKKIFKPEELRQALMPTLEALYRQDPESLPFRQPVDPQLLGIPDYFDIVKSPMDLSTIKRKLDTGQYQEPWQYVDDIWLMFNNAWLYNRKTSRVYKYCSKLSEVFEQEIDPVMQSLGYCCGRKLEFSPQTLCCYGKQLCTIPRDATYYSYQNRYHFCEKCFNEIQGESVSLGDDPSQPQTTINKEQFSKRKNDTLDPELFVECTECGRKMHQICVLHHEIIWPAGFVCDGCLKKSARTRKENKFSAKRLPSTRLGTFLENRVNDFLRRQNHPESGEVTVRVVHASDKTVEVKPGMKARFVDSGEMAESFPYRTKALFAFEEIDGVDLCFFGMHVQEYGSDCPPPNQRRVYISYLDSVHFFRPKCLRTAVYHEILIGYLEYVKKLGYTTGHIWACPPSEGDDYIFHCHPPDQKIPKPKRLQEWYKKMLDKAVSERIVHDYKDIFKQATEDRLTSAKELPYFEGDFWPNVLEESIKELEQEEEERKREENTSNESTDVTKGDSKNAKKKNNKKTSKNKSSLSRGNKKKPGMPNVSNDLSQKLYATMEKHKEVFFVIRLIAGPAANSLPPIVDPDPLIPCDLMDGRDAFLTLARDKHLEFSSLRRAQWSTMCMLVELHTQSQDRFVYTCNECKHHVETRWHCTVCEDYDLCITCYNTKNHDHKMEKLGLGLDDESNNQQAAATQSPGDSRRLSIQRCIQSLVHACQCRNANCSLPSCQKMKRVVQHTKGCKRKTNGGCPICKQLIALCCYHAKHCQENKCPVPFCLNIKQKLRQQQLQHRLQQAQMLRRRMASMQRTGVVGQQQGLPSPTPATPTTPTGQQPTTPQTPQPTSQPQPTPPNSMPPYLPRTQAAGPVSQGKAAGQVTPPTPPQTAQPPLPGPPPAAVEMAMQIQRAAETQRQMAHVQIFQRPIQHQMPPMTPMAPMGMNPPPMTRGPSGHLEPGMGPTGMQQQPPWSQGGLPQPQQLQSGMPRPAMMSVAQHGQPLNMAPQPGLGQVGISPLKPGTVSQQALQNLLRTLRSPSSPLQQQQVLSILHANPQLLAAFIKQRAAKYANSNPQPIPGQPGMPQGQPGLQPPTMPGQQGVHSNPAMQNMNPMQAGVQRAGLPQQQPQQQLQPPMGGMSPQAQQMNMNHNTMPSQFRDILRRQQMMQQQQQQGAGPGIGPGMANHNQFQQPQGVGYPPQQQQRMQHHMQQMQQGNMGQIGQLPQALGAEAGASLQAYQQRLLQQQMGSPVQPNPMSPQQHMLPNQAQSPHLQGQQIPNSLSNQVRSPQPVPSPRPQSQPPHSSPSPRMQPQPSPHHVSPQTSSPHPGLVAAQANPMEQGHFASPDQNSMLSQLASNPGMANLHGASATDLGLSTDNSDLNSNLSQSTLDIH
Assay: P300 degradation, HiBit technology in A549 P300 HiBit cells (2 h)
Type: cell-based
Conditions: A549 P300 HiBit cells, 2 hrs post treatment
Experimental: p300 and CBP degradation potency and Dmax were determined using in cell western (ICW) assay technology in H1299 cells or HiBit technology in A549 HiBit cells. A549 P300 HiBit and A549 CBP HiBit cells were plated in separate 384-well, TC treated, white-opaque, flat-bottomed microplate. […] After incubation, luminescent signal of each plate was measured using the Envision instrument (Perkin Elmer).

# count of solved cases: 3
compound	assayed-target	DC50
Cc1cc(N2CCOc3nc(-c4ccc(C(=O)NCC#Cc5ccc6occ(C7CCC(=O)NC7=O)c6c5)nc4)ncc32)cc2c1n(C)c(=O)n2C (stereo not drawn)	p300 (Homo sapiens)	1 to 9.9 nM
CCc1cc(-c2cccc3cc(-c4ccc(C(=O)NCC#Cc5cccc(CC6CCC(=O)NC6=O)c5)nc4)ncc23)c2cc(C)c(=O)n(C)c2c1 (stereo not drawn)	p300 (Homo sapiens)	10 to 99 nM
Cc1cc(N2CCCc3nc(-c4ccc(C(=O)NCC#Cc5cc6c(C7CCC(=O)NC7=O)cccc6o5)nc4)ncc32)cc2c1n(C)c(=O)n2C (stereo not drawn)	p300 (Homo sapiens)	< 1 nM

For record Cc1cc(-c2cc3cccc(-c4cnc5c(c4)n(C)c(=O)n5C)c3cn2)cnc1C(=O)NCC#Cc1cc2c(C3CCC(=O)NC3=O)cccc2o1 (stereo not drawn) the listed DC50 is 1 to 9.9 nM

For record Cc1cc(-c2ncc3c(n2)OCCN3c2ccc3c(c2)n(C)c(=O)n3C)cnc1C(=O)NCC#Cc1ccc2occ(C3CCC(=O)NC3=O)c2c1 (stereo not drawn) [Example A92] the listed DC50 is 1 to 9.9 nM

For record Cc1oc2ccc(C#CCNC(=O)c3ccc(-c4cc5cccc(-c6cc(C(C)C)c7c(c6)n(C)c(=O)n7C)c5cn4)cn3)cc2c1C1CCC(=O)NC1=O (stereo not drawn) the listed DC50 is 10 to 99 nM
